target.or.system: T1, full-length SUMO-CtBP2 (human, UniProt P56545 1-445)
T1 construct: Named SUMO-CtBP2 in the pull-downs; also called SUMO-CtBP2-FL; CtBP2-FL; source: E. coli Rosetta 2 (DE3), purified (Ni-NTA); not shown: SUMO, N-terminal, kept
test.description: pull-down; FLAG-tagged G9a (or GLP) fragments immobilised on anti-FLAG resin, incubated with CtBP protein 2 h at 4 °C; 50 mM Tris-HCl pH 8.0, 150 mM NaCl, 2 mM DTT, 0.1% NP-40; eluted with FLAG peptide, SDS-PAGE
conditions: both partners purified
experimental.readout: binding result

1. SUMO-G9a^881–1210-FLAG (domain or fragment, human, UniProt Q96KQ7 881-1210, looked up, G9a (EHMT2), human, residues 881-1210; also called CD; G9a C-terminal catalytic domain; not shown: SUMO, N-terminal, kept; FLAG, C-terminal, kept) NKEGDTAWDLTPERSDVWFALQLNRKLRLGVGNRAIRTEKIICRDVARGYENVPIPCVNGVDGEPCPEDYKYISENCETSTMNIDRNITHLQHCTCVDDCSSSNCLCGQLSIRCWYDKDGRLLQEFNKIEPPLIFECNQACSCWRNCKNRVVQSGIKVRLQLYRTAKMGWGVRALQTIPQGTFICEYVGELISDAEADVREDDSYLFDLDNKDGEVYCIDARYYGNISRFINHLCDPNIIPVRVFMLHQDLRFPRIAFFSSRDIRTGEELGFDYGDRFWDIKSKYFTCQCGSEKCKHSAEAIALEQSRLARLDPHPELLPELGSLPPVNT; binds
